system: 958767-090-R-J1-PDC spheroid growth; test: Anticancer human tumor 958767-090-R-J1-PDC patient-derived head and neck squamous carcinoma cell line growth inhibition [IpAb]; conditions: second compound 0.1 µM; first compound 0.03 µM; active compounds read low; spheroids with HUVEC and MSC;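 also: spheroids exposed to agents for 7 days; 100% = DMSO vehicle control wells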
Assay metric: viability, T/C (%)
Report as a plain number; the unit % is understood.

Please give the measured viability, T/C for this compound: CC(C)(C)c1cnc(CSc2cnc(NC(=O)C3CCNCC3)s2)o1 + CC(C)NCC(C(=O)N1CCN(c2ncnc3c2C(C)CC3O)CC1)c1ccc(Cl)cc1
95.1

Please give the measured viability, T/C for this compound: CC(=O)c1c(C)c2cnc(Nc3ccc(N4CCNCC4)cn3)nc2n(C2CCCC2)c1=O + CCN1CCN(Cc2ccc(Nc3ncc(F)c(-c4cc(F)c5nc(C)n(C(C)C)c5c4)n3)nc2)CC1
53.6

Please give the measured viability, T/C for this compound: Cn1cnc2c(F)c(Nc3ccc(Br)cc3Cl)c(C(=O)NOCCO)cc21 + CCN1CCN(Cc2ccc(Nc3ncc(F)c(-c4cc(F)c5nc(C)n(C(C)C)c5c4)n3)nc2)CC1
41.9

Please give the measured viability, T/C for this compound: CC(=O)c1c(C)c2cnc(Nc3ccc(N4CCNCC4)cn3)nc2n(C2CCCC2)c1=O + CC(C)NCC(C(=O)N1CCN(c2ncnc3c2C(C)CC3O)CC1)c1ccc(Cl)cc1
67.7

Please give the measured viability, T/C for this compound: CC(C)(C)c1cnc(CSc2cnc(NC(=O)C3CCNCC3)s2)o1 + CCN1CCN(Cc2ccc(Nc3ncc(F)c(-c4cc(F)c5nc(C)n(C(C)C)c5c4)n3)nc2)CC1
63.3

Please give the measured viability, T/C for this compound: Cn1cnc2c(F)c(Nc3ccc(Br)cc3Cl)c(C(=O)NOCCO)cc21 + CC(C)NCC(C(=O)N1CCN(c2ncnc3c2C(C)CC3O)CC1)c1ccc(Cl)cc1
38.9
